Data provenance is patent US6469056B1.

Values of IC50 reported for NEP 24.11 (neutral endopeptidase 24.11) (Homo sapiens) appear below.
quantity.name: IC50

[[record]]
chem_smiles = "CC(C)(C)SSC[C@@H](CN(C(=O)c1ccc(Cl)s1)[C@@H](Cc1ccccc1)C(=O)O)NC(=O)OCC1c2ccccc2-c2ccccc21"
result = "> 100 µM"

[[record]]
chem_smiles = "O=C(N[C@@H](Cc1ccccc1)CN(C(=O)c1ccc(Cl)s1)[C@@H](Cc1ccccc1)C(=O)O)OCC1c2ccccc2-c2ccccc21"
result = "> 100 µM"


----------
system.tested: ACE (angiotensin converting enzyme) (Homo sapiens, UniProt P12821)
Sequence (P12821 30-1306, species assumed): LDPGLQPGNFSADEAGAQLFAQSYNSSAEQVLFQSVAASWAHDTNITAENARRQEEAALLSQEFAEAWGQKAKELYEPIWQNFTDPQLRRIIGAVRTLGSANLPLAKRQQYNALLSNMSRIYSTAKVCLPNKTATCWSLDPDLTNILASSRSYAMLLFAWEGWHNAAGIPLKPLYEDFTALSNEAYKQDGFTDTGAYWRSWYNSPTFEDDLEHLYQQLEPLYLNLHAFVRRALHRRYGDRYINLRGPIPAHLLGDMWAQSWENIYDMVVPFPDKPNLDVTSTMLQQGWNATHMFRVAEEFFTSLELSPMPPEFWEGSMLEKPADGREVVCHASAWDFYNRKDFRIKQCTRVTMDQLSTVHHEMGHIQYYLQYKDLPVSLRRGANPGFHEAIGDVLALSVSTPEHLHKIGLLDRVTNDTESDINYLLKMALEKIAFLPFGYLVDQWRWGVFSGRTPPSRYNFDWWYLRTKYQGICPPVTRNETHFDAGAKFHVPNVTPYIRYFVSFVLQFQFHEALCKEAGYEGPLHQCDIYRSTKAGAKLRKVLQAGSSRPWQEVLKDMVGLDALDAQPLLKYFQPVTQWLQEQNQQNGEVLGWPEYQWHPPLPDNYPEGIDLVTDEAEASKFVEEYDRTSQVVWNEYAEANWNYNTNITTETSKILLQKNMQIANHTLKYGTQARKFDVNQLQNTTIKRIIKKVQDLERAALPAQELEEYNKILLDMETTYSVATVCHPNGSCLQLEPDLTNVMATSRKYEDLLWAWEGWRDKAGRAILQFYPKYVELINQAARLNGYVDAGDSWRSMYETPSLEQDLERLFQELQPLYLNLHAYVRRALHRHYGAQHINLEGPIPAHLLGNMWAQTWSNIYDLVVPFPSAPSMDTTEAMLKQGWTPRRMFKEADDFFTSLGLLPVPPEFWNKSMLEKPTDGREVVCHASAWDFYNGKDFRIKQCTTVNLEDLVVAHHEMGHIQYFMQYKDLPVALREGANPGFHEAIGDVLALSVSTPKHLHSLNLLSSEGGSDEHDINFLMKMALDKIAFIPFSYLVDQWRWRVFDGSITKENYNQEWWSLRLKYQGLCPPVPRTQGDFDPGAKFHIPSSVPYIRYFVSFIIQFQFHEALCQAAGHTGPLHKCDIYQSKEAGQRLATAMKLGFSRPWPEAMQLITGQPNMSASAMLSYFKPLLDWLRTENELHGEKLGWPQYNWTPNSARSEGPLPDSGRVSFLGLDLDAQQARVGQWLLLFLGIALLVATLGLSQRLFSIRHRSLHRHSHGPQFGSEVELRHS
quantity.name: IC50

[[record]]
compound = "O=C(N[C@@H](Cc1ccccc1)CN(C(=O)c1ccc2ccccc2c1)[C@@H](Cc1ccccc1)C(=O)O)OCC1c2ccccc2-c2ccccc21 [Compound 1e]"
system_tested = "ACE (angiotensin converting enzyme) (Homo sapiens, UniProt P12821)"
quantity_name = "IC50"
result = "> 100 µM"


----------
system.tested: recombinant human ECE from CHO cells (Homo sapiens)
Sequence (P42892 1-770): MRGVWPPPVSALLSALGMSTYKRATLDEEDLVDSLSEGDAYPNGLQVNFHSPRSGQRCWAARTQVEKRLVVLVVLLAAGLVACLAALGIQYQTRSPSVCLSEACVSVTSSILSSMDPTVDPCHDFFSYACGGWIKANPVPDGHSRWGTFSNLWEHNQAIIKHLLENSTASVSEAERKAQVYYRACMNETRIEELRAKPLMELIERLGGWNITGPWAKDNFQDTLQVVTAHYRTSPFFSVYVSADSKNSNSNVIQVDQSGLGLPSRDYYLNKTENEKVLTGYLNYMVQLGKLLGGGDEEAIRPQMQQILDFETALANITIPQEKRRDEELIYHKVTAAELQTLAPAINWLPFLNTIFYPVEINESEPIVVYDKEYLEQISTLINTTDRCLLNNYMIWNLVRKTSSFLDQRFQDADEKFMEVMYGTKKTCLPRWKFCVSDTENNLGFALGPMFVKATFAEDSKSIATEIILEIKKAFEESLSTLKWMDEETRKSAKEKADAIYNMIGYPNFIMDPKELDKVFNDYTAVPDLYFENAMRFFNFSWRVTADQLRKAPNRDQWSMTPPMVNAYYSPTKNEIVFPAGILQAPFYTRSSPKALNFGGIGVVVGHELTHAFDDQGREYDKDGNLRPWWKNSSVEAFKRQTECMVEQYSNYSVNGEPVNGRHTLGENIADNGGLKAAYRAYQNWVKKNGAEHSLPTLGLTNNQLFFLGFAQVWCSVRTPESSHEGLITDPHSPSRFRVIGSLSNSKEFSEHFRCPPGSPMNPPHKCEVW
run.description: ECE inhibitor test, IC50 determination (Big ET1 cleavage, HPLC)
details: Big ET1 substrate, 1 hour at 37° C., pH 7.2
The molecules listed here are annotated with their IC50.
quantity.name: IC50 (µM)

[[record]]
molecule = "O=C(N[C@@H](Cc1ccccc1)CN(C(=O)c1ccc(Cl)s1)[C@@H](Cc1ccccc1)C(=O)O)OCC1c2ccccc2-c2ccccc21 [Compound 1a]"
system_tested = "recombinant human ECE from CHO cells (Homo sapiens)"
numeric_result = 2

[[record]]
molecule = "O=C(N[C@@H](Cc1ccccc1)CN(C(=O)c1ccc2ccccc2c1)[C@@H](Cc1ccccc1)C(=O)O)OCC1c2ccccc2-c2ccccc21 [Compound 1e]"
system_tested = "recombinant human ECE from CHO cells (Homo sapiens)"
numeric_result = 4

[[record]]
molecule = "CC(C)(C)SSC[C@@H](CN(C(=O)c1ccc(Cl)s1)[C@@H](Cc1ccccc1)C(=O)O)NC(=O)OCC1c2ccccc2-c2ccccc21 [Compound 1b]"
system_tested = "recombinant human ECE from CHO cells (Homo sapiens)"
numeric_result = 3

